Hey, just so you know, these numbers are from paper PMC6002953.

system: human OX1 receptor (Homo sapiens, UniProt O43613)
Sequence (O43613 whole entry): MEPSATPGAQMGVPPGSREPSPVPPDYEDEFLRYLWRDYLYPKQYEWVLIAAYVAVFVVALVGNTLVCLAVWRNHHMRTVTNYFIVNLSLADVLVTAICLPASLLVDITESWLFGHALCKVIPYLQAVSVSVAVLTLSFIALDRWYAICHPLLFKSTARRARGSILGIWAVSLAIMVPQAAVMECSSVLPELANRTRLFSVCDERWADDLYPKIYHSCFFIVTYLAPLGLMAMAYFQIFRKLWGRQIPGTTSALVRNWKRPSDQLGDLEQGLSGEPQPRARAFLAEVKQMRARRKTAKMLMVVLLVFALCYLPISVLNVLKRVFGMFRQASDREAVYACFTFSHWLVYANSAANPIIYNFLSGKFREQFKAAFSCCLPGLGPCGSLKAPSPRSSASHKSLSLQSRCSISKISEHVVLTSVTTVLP
assayName: Calcium mobilization Ke assay, OX1
Type: cell-based
resultType: pKd
Just so you know, pKd here is -log10 of the concentration in molar units; reply with that number alone.

[
  {
    "compound": "COc1ccc(CC2c3cc(N(C)C)c(OC)cc3CCN2CC(=O)NCc2cccnc2)cc1N(C)C (centres unmarked)",
    "system": "human OX1 receptor (Homo sapiens, UniProt O43613)",
    "pKd": 8.24
  },
  {
    "compound": "COc1cc2c(cc1N(C)C)C(Cc1cccc(N(C)C)c1)N(CC(=O)NCc1ccccc1)CC2 (centres unmarked)",
    "system": "human OX1 receptor (Homo sapiens, UniProt O43613)",
    "pKd": 6.83
  },
  {
    "compound": "CCCC(=O)Nc1cc2c(cc1OC)CCN(CC(=O)NCc1ccccc1)C2Cc1ccc(OC)c(OC)c1 (centres unmarked) [Compound 34e]",
    "system": "human OX1 receptor (Homo sapiens, UniProt O43613)",
    "pKd": 6.16
  }
]

Next compound, pKd to be filled in.
Q: // lookup pKd for COc1cc2c(cc1OCC(F)(F)F)C(Cc1ccc3ccccc3c1)N(CC(=O)NCc1cccnc1)CC2 (centres unmarked) [Compound 15a]
A: 7.53
